The reported measurements were obtained from paper PMC11589570.

- Target Or Test System: GABARAPL2 (Homo sapiens)
- Sequence (P60520 whole entry): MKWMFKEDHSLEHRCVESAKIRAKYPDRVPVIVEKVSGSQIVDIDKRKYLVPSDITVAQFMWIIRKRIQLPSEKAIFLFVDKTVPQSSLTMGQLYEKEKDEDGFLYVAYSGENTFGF
- Condition Label: residue H9; GABARAPL2:ligand molar ratio 1:2
Recorded Metric: CSP (ppm)
Field format: number, assumed ppm, no unit text.

- Mol: "O=c1cc(-c2ccccc2)c2c(O)cc(O)cc2o1"
  CSP / ppm: 0.016
- Mol: "O=C1Nc2ccc(Br)cc2C1=Cc1cc(O)c(O)c(Br)c1"
  CSP / ppm: 0.012
- Mol: "Cc1ccc(C(=O)N(CCCN)[C@@H](c2nc3cc(Cl)ccc3c(=O)n2Cc2ccccc2)C(C)C)cc1"
  CSP / ppm: 0.010

Turning now to a further molecule:
Name the recorded CSP for `O=C1Nc2ccc(I)cc2C1=Cc1cc(Br)c(O)c(Br)c1` .
0.008
